# MEASUREMENT DESCRIPTION: Inhibitory activity against human cytosolic phosphoenolpyruvate carboxykinase (PEPCK) enzyme
EXPERIMENTAL ENDPOINT: IC50 (µM)

SMILES	RECORDED RESULT
C=CCn1c(=O)c2[nH]c(C)nc2n(CCCC)c1=O	225

(P) C=CCn1c(=O)c2[nH]c(Cc3ccc(N)cc3)nc2n(CCCC)c1=O
(Q) CCCCn1c(=O)n(CCC)c(=O)c2[nH]c(C)nc21
(R) CCCCn1c(=O)n(Cc2ccccc2F)c(=O)c2[nH]c(Cc3ccc(NC(C)=O)cc3)nc21
(S) C=CCn1c(=O)c2[nH]c(CC)nc2n(CCCC)c1=O
(T) CCCCn1c(=O)n(Cc2ccccc2)c(=O)c2[nH]c(Cc3ccc(NC(C)=O)cc3)nc21
Put the items in order so that reported IC50 rises from first to last. Field: ranking. Enter the labels in the order requested.
R, T, P, S, Q
(R: 2.11 µM, T: 8.15 µM, P: 37 µM, S: 100 µM, Q: 375 µM)
